Species: Oryctolagus cuniculus
measurement protocol: Inhibition of rabbit plasma Lp-PLA2 at 10 nM by liquid scintillation counting
Format: cell-free
readout type: inhibition (%)

Take a look at these entries with their results.
- compound: "CCN(CC)Cc1cnc(Cn2c(SCc3ccc(F)cc3)nc(=O)c3c2CCC3)n1Cc1ccc(-c2ccc(C(F)(F)F)cc2)cc1"
  inhibition / %: 10
- compound: "O=c1nc(SCc2ccc(F)cc2)n(Cc2ncc(C[N+]3(Cc4ccc(F)cc4)CCCC3)n2Cc2ccc(-c3ccc(C(F)(F)F)cc3)cc2)c2c1CCC2"
  inhibition / %: 88

1: CN(Cc1nnc(Cn2c(SCc3ccc(F)cc3)nc(=O)c3c2CCC3)n1Cc1ccc(-c2ccc(C(F)(F)F)cc2)cc1)C1CC1
2: C[N+](C)(Cc1ccc(F)cc1)Cc1nnc(Cn2c(SCc3ccc(F)cc3)nc(=O)c3c2CCC3)n1Cc1ccc(-c2ccc(C(F)(F)F)cc2)cc1
3: CC(O)c1nnc(Cn2c(SCc3ccc(F)cc3)nc(=O)c3c2CCC3)n1Cc1ccc(-c2ccc(C(F)(F)F)cc2)cc1 (stereo not given)
Task: // ranking: key=inhibition, reverse=True Arrange the labels as the request states and list them.
Result: 2, 3, 1
